target: Stimulator of interferon genes protein (Mus musculus); assay: Activation of STING in mouse RAW-Lucia ISG cells assessed as induction of type I IFNs stimulation by measuring induction of IRF pathway incubated for 48 hrs by luciferase reporter gene assay
Sequence (Q3TBT3 whole entry): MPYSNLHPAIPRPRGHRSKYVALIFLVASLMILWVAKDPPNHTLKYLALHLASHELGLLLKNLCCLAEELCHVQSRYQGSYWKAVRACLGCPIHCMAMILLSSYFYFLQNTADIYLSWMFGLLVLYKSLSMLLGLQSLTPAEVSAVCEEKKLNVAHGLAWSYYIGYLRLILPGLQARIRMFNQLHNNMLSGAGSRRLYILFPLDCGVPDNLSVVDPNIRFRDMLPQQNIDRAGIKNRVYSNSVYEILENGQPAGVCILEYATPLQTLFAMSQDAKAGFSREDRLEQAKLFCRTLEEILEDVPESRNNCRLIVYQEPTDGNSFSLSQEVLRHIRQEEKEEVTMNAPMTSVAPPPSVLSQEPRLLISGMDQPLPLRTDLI
measured-endpoint: pEC50
Please express pEC50 as -log10 of the molar concentration.

pEC50 measured on `Nc1ncnc2c1ncn2[C@@H]1O[C@@H]2COP(=O)(O)O[C@@H]3[C@H](O)[C@@H](COP(=O)(O)O[C@H]2[C@H]1O)O[C@H]3n1cnc2c(=O)[nH]cnc21` = 5.21

pEC50 measured on `Nc1ncnc2c1ncn2[C@@H]1O[C@@H]2COP(=O)(O)O[C@H]3C[C@H](n4cnc5c(O)ncnc54)O[C@@H]3COP(=O)(O)O[C@H]2[C@H]1F` = 5.04

pEC50 measured on `Nc1ncnc2c1ncn2[C@H]1C[C@@H]2OP(=O)(O)OC[C@H]3O[C@@H](n4cnc5c(O)ncnc54)[C@H](F)[C@@H]3OP(=O)(O)OC[C@H]2O1` = 5.30

pEC50 measured on `Nc1ncnc2c1ncn2[C@@H]1O[C@@H]2COP(=O)(O)O[C@H]3[C@@H](F)[C@H](n4cnc5c(O)ncnc54)O[C@@H]3COP(=O)(O)O[C@H]2[C@H]1F` = 5.29

pEC50 measured on Nc1ncnc2c1ncn2[C@@H]1O[C@@H]2COP(=O)(S)O[C@H]3[C@@H](O)[C@H](n4cnc5c(O)ncnc54)O[C@@H]3COP(=O)(S)O[C@H]2[C@H]1O (stereo partly drawn) = 5.40

pEC50 measured on Nc1ncnc2c1ncn2[C@@H]1O[C@@H]2COP(=O)(S)O[C@H]3[C@@H](F)[C@H](n4cnc5c(O)ncnc54)O[C@@H]3COP(=O)(S)O[C@H]2[C@H]1F (stereo partly drawn) = 6.22

pEC50 measured on Nc1ncnc2c1ncn2[C@H]1C[C@@H]2OP(=O)(S)OC[C@H]3O[C@@H](n4cnc5c(O)ncnc54)[C@H](F)[C@@H]3OP(=O)(S)OC[C@H]2O1 (stereo partly drawn) = 5.66

pEC50 measured on `Nc1ncnc2c1ncn2[C@H]1C[C@@H]2OP(=O)(O)OC[C@H]3O[C@@H](n4cnc5c(O)ncnc54)C[C@@H]3OP(=O)(O)OC[C@H]2O1` = 4.94

Ref: ChEMBL document CHEMBL4715794
